# Target Entity: human lung tryptase
# Test Summary: β-Tryptase In-Vitro Enzyme Assay
# Assay type: biochemical
# Assay Context: human lung tryptase 1 nM, substrate H-D-HHT-Ala-Arg-pNa 500 μM, pH 7.4, room temperature
Class field: derived from IC50; ranges low bracket (below 50 nM), middle bracket (50 nM to below 300 nM), high bracket (300 nM or more)

Sample answers from the record:
[
  {
    "Smiles Repr": "NCc1ccc2c(c1)C1(CCN(C(=O)c3ccc(C#Cc4ccccc4)o3)CC1)CN2S(=O)(=O)c1ccsc1",
    "Answer Label": "low bracket"
  },
  {
    "Smiles Repr": "NCc1ccc2c(c1)C1(CCN(C(=O)/C=C/c3ccsc3)CC1)CO2",
    "Answer Label": "high bracket"
  },
  {
    "Smiles Repr": "NCc1ccc2c(c1)C1(CCN(C(=O)c3ccc4cc(Br)ccc4c3)CC1)CO2",
    "Answer Label": "middle bracket"
  },
  {
    "Smiles Repr": "NCc1ccc2c(c1)C1(CCN(C(=O)c3ccc(C#Cc4ccccc4)o3)CC1)NC2=O",
    "Answer Label": "low bracket"
  },
  {
    "Smiles Repr": "NCc1ccc2c(c1)C1(CCN(C(=O)c3ccc(-c4ccc(Cl)cc4Cl)o3)CC1)CO2",
    "Answer Label": "low bracket"
  },
  {
    "Smiles Repr": "NCc1ccc2c(c1)C1(CCN(C(=O)c3ccc(C#Cc4ccccc4)o3)CC1)CN2S(=O)(=O)c1csc(C(=O)O)c1",
    "Answer Label": "low bracket"
  }
]

Ask: Class for `NCc1ccc2c(c1)C1(CCN(C(=O)c3cc4c(F)cccc4s3)CC1)CO2` ?
Reply: low bracket

Ask: Also `NCc1ccc2c(c1)C1(CCN(C(=O)c3ccc(Br)s3)CC1)CO2` , if possible.
Reply: middle bracket

---

Each item that follows carries a reported pIC50.
# Target Entity: human lung tryptase
# Test Summary: β-Tryptase In-Vitro Enzyme Assay
# Assay Context: human lung tryptase 1 nM, substrate H-D-HHT-Ala-Arg-pNa 500 μM, pH 7.4, room temperature
pIC50 field: float, defined as -log10 of concentration (mol/L).

Solved cases (10 shown):
[
  {
    "Smiles Repr": "NCc1ccc2c(c1)C1(CCN(C(=O)/C=C/c3ccc(Cl)c(Cl)c3)CC1)CO2",
    "Target Entity": "human lung tryptase",
    "pIC50": 6.54
  },
  {
    "Smiles Repr": "NCc1ccc2c(c1)C1(CCN(C(=O)c3sc(SCc4ccccc4)c4c3CCCC4=O)CC1)CO2",
    "Target Entity": "human lung tryptase",
    "pIC50": 8.19
  },
  {
    "Smiles Repr": "NCc1ccc2c(c1)C1(CCN(C(=O)c3cccc(F)c3)CC1)CO2",
    "Target Entity": "human lung tryptase",
    "pIC50": 6.44
  },
  {
    "Smiles Repr": "NCc1ccc2c(c1)C1(CCN(C(=O)c3ccc(I)cc3)CC1)CO2",
    "Target Entity": "human lung tryptase",
    "pIC50": 6.89
  },
  {
    "Smiles Repr": "NCc1ccc2c(c1)C1(CCN(C(=O)/C=C\\c3ccco3)CC1)CO2",
    "Target Entity": "human lung tryptase",
    "pIC50": 6.19
  },
  {
    "Smiles Repr": "NCc1ccc2c(c1)C1(CCN(C(=O)c3ccc(C#Cc4ccccc4F)o3)CC1)CO2",
    "Target Entity": "human lung tryptase",
    "pIC50": 8.37
  },
  {
    "Smiles Repr": "NCc1ccc2c(c1)C1(CCN(C(=O)c3cccc(NC(=O)Cc4cccs4)c3)CC1)CO2",
    "Target Entity": "human lung tryptase",
    "pIC50": 6.25
  },
  {
    "Smiles Repr": "NCc1ccc2c(c1)C1(CCN(C(=O)c3cc(C(N)=O)cc(-c4nc(-c5cccs5)no4)c3)CC1)CO2",
    "Target Entity": "human lung tryptase",
    "pIC50": 8.34
  },
  {
    "Smiles Repr": "Cc1cc(C)nc(SCc2ccc(C(=O)N3CCC4(CC3)COc3ccc(CN)cc34)o2)n1",
    "Target Entity": "human lung tryptase",
    "pIC50": 6.48
  },
  {
    "Smiles Repr": "COc1ccc(C(=O)N2CCC3(CC2)COc2ccc(CN)cc23)cc1",
    "Target Entity": "human lung tryptase",
    "pIC50": 6.12
  }
]

Ask: Would you mind telling me what pIC50 value was observed for `NCc1ccc2c(c1)C1(CCN(C(=O)/C(F)=C/c3ccccc3)CC1)CO2` ?
Reply: 7.10

Ask: Also `NCc1ccc2c(c1)C1(CCN(C(=O)c3ccc(C#Cc4ccccc4)o3)CC1)CN2C(=O)c1nnn[nH]1` , if possible.
Reply: 7.33

FYI, the data here is from patent US8158792B2.
